Target: GST-Nv-NF-kB (Cys allele) (Nematostella vectensis, UniProt E5G601 2-411)
Sequence: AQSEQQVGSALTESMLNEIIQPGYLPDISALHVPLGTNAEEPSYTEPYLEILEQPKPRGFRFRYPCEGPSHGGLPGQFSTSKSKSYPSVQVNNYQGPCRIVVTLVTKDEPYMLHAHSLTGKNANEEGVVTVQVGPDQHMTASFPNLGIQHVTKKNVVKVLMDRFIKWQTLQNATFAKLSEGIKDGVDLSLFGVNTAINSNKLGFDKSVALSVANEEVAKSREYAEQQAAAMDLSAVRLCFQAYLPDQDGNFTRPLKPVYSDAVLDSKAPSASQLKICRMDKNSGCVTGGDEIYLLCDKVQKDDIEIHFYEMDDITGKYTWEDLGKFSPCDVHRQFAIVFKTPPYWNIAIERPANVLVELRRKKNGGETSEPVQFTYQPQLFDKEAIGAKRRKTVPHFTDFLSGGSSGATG
Experiment: protein-binding microarray (PBM); PBM: ~300 nM protein, 6 mM HEPES pH 7.8, 80 mM KCl, 0.5 mM EDTA, 0.5 mM EGTA, 6% glycerol, 35 ng/ul poly-dIdC, 1% milk, 1 h, room temperature; Ap Aiptasia and Nv Nematostella (sea anemones) / Co Capsaspora / Aq Amphimedon (sponge) / Dm Drosophila / Hu human; RHD is the Rel homology domain; high values mean tight binding
Conditions: dsDNA, one strand shown
EXPERIMENTAL_READOUT: binding signal (z-score)
Your answer should be a plain number; it is taken to be in z-score.

Reported binding signal (GST-Nv-NF-kB (Cys allele) (Nematostella vectensis, UniProt E5G601 2-411)) for entry CCGATTAACATCACGGACTCCCCTGATGTTAATCGGGTCTTGATTCGCTTGACGCTGCTG is 3.32
